- TARGET ENTITY: Glucocorticoid receptor (Homo sapiens)
- EXPERIMENT DESCRIPTION: qHTS assay to identify small molecule antagonists of the glucocorticoid receptor (GR) signaling pathway (AID 720692)
- CONDITION SUMMARY: GR-bla HeLa, beta-lactamase FRET ratio, dexamethasone-stimulated, 18 h; series mostly up to 58.5 µM
Records with an inconclusive call do not appear. The source made the active and inactive calls. Calls come from the whole dose curve; as a rule, active = well fitted inhibition curve with a large enough effect in the signal ratio in the repeat runs (not every such curve was filed as active); inconclusive = weak or mixed curves, or effect the other way; inactive = no such curve, though single readings can be large or run the other way; the % refers to the signal ratio.
Classes used: active, inactive

1. O=c1[nH]cnc2c1ncn2[C@H]1CC[C@@H](CO)O1 ... inactive
2. CC(=O)Nc1c(I)c(NC(C)=O)c(I)c(C(=O)O)c1I ... inactive
3. CCOc1ccc(NC(C)=O)cc1 ... inactive
4. CN1CCc2cccc3c2[C@H]1Cc1ccc(O)c(O)c1-3 ... inactive
5. CC12CCC(CC1)C(C)(C)O2 ... inactive
6. COc1cccc(O)c1O ... inactive
7. O=CC(=O)c1ccccc1 ... inactive
8. C=C(C)C(=O)OCC(C)O (stereo not given) ... inactive
9. CNNCc1ccc(C(=O)NC(C)C)cc1 ... inactive
10. NS(=O)(=O)c1cc2c(cc1Cl)NCNS2(=O)=O ... inactive
11. CN(C)C(=O)Nc1ccc(Cl)c(Cl)c1 ... inactive
12. CCCCNC(=O)NS(=O)(=O)c1ccc(C)cc1 ... inactive
13. CCc1nc(N)nc(N)c1-c1ccc(Cl)cc1 ... inactive
14. CCCC[P+](CCCC)(CCCC)CCCC ... inactive
15. CCCCOC(=O)c1ccc(O)cc1 ... inactive
16. OC[C@H]1O[C@H](O[C@]2(CCl)O[C@H](CCl)[C@@H](O)[C@@H]2O)[C@H](O)[C@@H](O)[C@H]1Cl ... inactive
17. CC(=O)CCC(=O)O ... inactive
18. NC(CO)(CO)CO ... inactive
19. Nc1c(N=Nc2ccc(-c3ccc(N=Nc4cc(S(=O)(=O)O)c5ccccc5c4N)cc3)cc2)cc(S(=O)(=O)O)c2ccccc12 ... active
20. O=C1O[C@H]([C@@H](O)CO)C(O)=C1O ... inactive
21. Cc1cccc(C)c1 ... inactive
22. CN(C)CCOC(c1ccccc1)c1ccccc1 ... inactive
23. NC(=O)c1cccnc1 ... inactive
24. NS(=O)(=O)O ... inactive
25. CCN(CC)C(=O)c1cccc(C)c1 ... inactive

----------
- EXPERIMENT DESCRIPTION: qHTS assay to identify small molecule agonists of the constitutive androstane receptor (CAR) signaling pathway - cell viability counter screen (AID 1224836); note: nearly all actives have a fitted effect of over 45% in size; note: potency is the fitted concentration of half-maximal effect
- CONDITION SUMMARY: HepG2-CYP2B6-hCAR viability, CellTiter-Fluor, 23 h, PK11195 added to every well; series mostly up to 92.4 µM
Results filed as inconclusive are left out. The source made the active and inactive calls. The call rests on the fitted dose curve; in most records, active means well fitted cell-killing curve with a large enough effect in the repeat runs; inconclusive means weak or mixed curves, or effect the other way; inactive means flat fitted curve, though single readings scatter.
REPORTED METRIC: Potency

1) NS(=O)(=O)O ... inactive
2) COc1ccc2cc(S(=O)(=O)N[C@H](CC(=O)N[C@H](Cc3ccc(CN4[C@H](C)CCC[C@@H]4C)cc3)C(=O)N(C)C(C)C)c3ccc4c(c3)OCO4)ccc2c1 ... 23 µM (active)
3) NC(CO)(CO)CO ... inactive
4) CNNCc1ccc(C(=O)NC(C)C)cc1 ... inactive
5) CCCCCCc1ccc(O)cc1O ... inactive
6) OC[C@H]1O[C@H](O[C@]2(CCl)O[C@H](CCl)[C@@H](O)[C@@H]2O)[C@H](O)[C@@H](O)[C@H]1Cl ... inactive
7) CC(C)c1c(C(=O)Nc2ccccc2)c(-c2ccccc2)c(-c2ccc(F)cc2)n1CC[C@@H](O)C[C@@H](O)CC(=O)O ... inactive
8) C[C@](N)(Cc1ccc(O)c(O)c1)C(=O)O ... inactive
9) Nc1c(N=Nc2ccc(-c3ccc(N=Nc4cc(S(=O)(=O)O)c5ccccc5c4N)cc3)cc2)cc(S(=O)(=O)O)c2ccccc12 ... 27.3 µM (active)
10) CN1[C@@H]2CC(OC(=O)[C@H](CO)c3ccccc3)C[C@H]1[C@@H]1O[C@@H]12 (some centres not stated) ... inactive
11) O=C1O[C@H]([C@@H](O)CO)C(O)=C1O ... inactive
12) CC(C)C(=O)Nc1ccc([N+](=O)[O-])c(C(F)(F)F)c1 ... inactive

Data provenance: PubChem BioAssay (Tox21)
